target: MAO-B (Homo sapiens, UniProt P27338)
Sequence (P27338 whole entry): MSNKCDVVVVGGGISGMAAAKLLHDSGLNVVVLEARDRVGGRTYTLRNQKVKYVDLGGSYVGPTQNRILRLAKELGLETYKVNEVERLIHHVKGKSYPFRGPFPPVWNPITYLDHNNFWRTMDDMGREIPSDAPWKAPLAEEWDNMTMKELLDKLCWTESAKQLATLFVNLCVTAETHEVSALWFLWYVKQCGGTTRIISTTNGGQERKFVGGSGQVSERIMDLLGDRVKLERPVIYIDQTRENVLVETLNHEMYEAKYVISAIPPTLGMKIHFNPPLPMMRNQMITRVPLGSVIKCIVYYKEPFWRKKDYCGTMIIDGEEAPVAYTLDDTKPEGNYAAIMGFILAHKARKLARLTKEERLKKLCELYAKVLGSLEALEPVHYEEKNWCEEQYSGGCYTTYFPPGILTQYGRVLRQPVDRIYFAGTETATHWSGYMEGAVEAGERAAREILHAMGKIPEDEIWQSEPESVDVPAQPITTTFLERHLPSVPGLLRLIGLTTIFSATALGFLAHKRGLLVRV
Where a name gives a salt, the structure may show the parent alone.
observation_type: IC50

For the compound shown here, Cc1c2c(cn1C/C(=C/F)CN)C(=O)N(C1CC1)CC2 [Compound A35 hydrochloride] , give the reported IC50.
92.7 µM

Would you mind doing CC(C)(C)N1CCc2nn(C/C(=C/F)CN)cc2C1=O [Compound A7 hydrochloride] as well?
> 100 µM

Would you mind doing Cl.NC/C(=C\F)Cn1cc2c(c1Cl)CCN(C1CC1)C2=O [Compound A42 hydrochloride] as well?
> 100 µM

###

experiment: Rat PK evaluation; assay type: in vivo; conditions: plasma, SD rats, IV 1 mg/kg, n=3, read-out: tz1/2 iv (terminal half-life) (converted)
Where a name gives a salt, the structure may show the parent alone.
observation_type: half-life (min)

Some entries whose results are on file:
- compound: "Cl.NC/C(=C\\F)Cn1cc2c(c1Cl)CCN(C1CC1)C2=O [Compound A42 hydrochloride]"
  half-life [min]: 31.8
- compound: "CCN1CCc2nn(C/C(=C/F)CN)cc2C1=O [Compound A6 hydrochloride]"
  half-life [min]: 43.8
- compound: "Cl.NC/C(=C\\F)Cn1cc2c(c1Br)CCN(C1CC1)C2=O [Compound A32 hydrochloride]"
  half-life [min]: 28.8

A. NC/C(=C\F)Cn1cc2c(=O)n(C3CC3)ccc2n1 [Compound A41]
B. NC/C(=C\F)Cn1cc2c(n1)CCN(C1CC1)C2=O [Compound A1]
// task: argmin of half-life over [ A , B ] Write down the label attached to your selection.
A
(A: 33.6 min, B: 52.2 min)
